# Experimental System: various mutants of kinase EGFR (BaF3 cell lines stably transfected with kinase) (Homo sapiens, UniProt P00533, L858R/T790M)
# Construct: expressed in transfected cells; host or cells: BaF3
# Sequence (P00533 25-1210 T790M/L858R): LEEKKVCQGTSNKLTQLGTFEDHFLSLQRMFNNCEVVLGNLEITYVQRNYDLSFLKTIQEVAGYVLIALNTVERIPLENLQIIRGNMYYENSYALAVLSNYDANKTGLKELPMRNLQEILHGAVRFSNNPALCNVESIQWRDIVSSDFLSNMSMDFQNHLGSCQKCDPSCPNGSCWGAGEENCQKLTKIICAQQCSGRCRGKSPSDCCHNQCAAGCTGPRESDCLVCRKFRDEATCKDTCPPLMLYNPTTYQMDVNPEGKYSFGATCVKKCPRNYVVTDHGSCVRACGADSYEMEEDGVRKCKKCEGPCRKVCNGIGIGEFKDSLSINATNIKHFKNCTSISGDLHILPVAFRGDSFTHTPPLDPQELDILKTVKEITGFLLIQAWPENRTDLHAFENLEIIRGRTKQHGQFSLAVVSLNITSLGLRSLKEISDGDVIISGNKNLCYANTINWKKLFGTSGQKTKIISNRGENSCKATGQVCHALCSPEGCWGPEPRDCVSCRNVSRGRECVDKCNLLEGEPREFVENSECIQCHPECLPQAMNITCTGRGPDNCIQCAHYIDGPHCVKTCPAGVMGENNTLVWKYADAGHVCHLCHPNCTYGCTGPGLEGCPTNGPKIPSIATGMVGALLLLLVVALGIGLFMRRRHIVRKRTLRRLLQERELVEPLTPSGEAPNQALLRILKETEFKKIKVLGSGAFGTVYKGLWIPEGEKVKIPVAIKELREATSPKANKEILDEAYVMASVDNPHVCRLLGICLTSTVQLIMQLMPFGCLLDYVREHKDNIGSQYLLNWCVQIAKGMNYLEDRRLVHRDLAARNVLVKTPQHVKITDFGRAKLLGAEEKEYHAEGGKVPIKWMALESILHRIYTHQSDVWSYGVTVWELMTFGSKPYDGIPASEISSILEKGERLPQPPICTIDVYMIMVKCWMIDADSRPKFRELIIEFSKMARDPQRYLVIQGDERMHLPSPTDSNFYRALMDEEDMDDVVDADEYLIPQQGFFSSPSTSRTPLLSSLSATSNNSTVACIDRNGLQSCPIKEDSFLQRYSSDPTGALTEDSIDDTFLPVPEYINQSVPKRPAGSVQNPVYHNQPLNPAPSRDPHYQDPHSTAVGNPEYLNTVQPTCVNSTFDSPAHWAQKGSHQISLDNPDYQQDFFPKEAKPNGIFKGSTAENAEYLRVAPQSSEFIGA
# Method: Growth inhibitory activity of compounds on BaF3 cell lines stably transfected with kinase (MTS, 48 h)
# Type: cell-based
# Assay Context: BaF3 cells stably transfected with EGFR L858R/T790M, read-out: IC50, growth inhibition, L858R/T790M
pIC50: −log10 of the molar value.
Measure Name: pIC50

CCc1cc(Nc2ncc(Br)c(Nc3ccc4nccnc4c3N(CC)S(C)(=O)=O)n2)c(OC)cc1N1CCN(C)CC1 | ≥ 7.30
COc1cc(N2CCC(N(C)C)CC2)c(C)cc1Nc1ncc(Br)c(Nc2ccc3nccnc3c2N(C)S(C)(=O)=O)n1 | ≥ 7.30

Would you kindly look at the next entry?
Prompt: Entry under review: COc1cc(N2CCC(N3CCN(C)CC3)CC2)c(C)cc1Nc1ncc(Br)c(Nc2ccc3nccnc3c2N(C)S(=O)(=O)C(C)C)n1 . Reported pIC50?
Completion: ≥ 7.30

---

# Experimental System: various mutants of kinase EGFR (BaF3 cell lines stably transfected with kinase) (Homo sapiens, UniProt P00533, L858R)
# Construct: expressed in transfected cells; host or cells: BaF3
# Sequence (P00533 25-1210 L858R): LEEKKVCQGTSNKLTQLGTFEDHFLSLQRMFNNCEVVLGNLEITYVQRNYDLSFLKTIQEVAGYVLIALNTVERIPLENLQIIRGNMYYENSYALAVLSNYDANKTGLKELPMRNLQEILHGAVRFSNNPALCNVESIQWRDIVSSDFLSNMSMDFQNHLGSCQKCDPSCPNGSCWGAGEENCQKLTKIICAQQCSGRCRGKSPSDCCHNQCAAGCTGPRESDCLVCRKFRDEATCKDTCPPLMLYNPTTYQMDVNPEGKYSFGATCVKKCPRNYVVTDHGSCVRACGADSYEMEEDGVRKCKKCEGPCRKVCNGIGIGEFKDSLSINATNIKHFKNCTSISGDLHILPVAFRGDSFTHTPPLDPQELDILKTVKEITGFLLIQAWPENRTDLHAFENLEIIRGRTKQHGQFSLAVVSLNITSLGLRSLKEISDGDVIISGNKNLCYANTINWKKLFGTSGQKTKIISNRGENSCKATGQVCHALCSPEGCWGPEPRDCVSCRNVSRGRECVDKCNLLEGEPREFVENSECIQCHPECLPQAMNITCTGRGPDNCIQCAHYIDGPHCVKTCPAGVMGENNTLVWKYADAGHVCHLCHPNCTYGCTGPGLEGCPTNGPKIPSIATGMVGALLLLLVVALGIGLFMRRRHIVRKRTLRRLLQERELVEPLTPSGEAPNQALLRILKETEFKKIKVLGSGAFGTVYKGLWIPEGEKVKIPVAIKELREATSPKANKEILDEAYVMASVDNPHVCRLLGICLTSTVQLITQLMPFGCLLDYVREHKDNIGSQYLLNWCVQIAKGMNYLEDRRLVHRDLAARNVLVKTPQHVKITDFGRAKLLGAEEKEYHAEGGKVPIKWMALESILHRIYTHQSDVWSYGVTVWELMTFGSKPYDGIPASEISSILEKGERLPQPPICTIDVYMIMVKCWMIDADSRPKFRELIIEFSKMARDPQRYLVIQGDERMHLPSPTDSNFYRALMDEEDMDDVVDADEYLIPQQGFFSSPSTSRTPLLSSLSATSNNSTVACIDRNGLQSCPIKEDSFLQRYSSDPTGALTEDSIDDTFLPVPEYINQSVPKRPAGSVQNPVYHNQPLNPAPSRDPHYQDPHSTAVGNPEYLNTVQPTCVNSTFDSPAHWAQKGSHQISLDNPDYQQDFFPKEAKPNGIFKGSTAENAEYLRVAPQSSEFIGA
# Method: Growth inhibitory activity of compounds on BaF3 cell lines stably transfected with kinase (MTS, 48 h)
# Type: cell-based
# Assay Context: BaF3 cell line stably transfected with EGFR L858R, read-out: L858R growth inhibitory activity IC50
pIC50: −log10 of the molar value.
Measure Name: pIC50

Worked cases, pIC50 given:
CCc1cnc(Nc2ccc(N3CCC(N4CCN(C)CC4)CC3)cc2OC)nc1Nc1ccc2nccnc2c1N(C)S(C)(=O)=O | 6.30 to 7.30
CCc1cc(Nc2ncc(Br)c(Nc3ccc4nccnc4c3NS(C)(=O)=O)n2)c(OC)cc1N1CCC(N2CCN(C)CC2)CC1 | ≥ 7.30
COc1cc(N2CCC(N3CCN(C)CC3)CC2)ccc1Nc1ncc(Br)c(Nc2ccc3nccnc3c2NS(=O)(=O)C(C)C)n1 | 6.30 to 7.30
CCc1cc(Nc2nc(Nc3ccc4nccnc4c3N(C)S(C)(=O)=O)c3[nH]ccc3n2)c(OC)nc1N1CCC(N2CCN(C)CC2)CC1 | 6.30 to 7.30
COc1cc(N2CCC(N(C)C)C2)c(C)cc1Nc1nc(Nc2ccc3nccnc3c2N(C)S(C)(=O)=O)c2sccc2n1 (stereo not drawn) | 5.60 to 6.30
CN1CCN(C2CCN(c3ccc(Nc4ncc(Br)c(Nc5ccc6nccnc6c5NS(C)(=O)=O)n4)c(F)c3F)CC2)CC1 | ≥ 7.30
COc1cc(N2CCC(N3CCN(C)CC3)CC2)ccc1Nc1ncc(Br)c(Nc2ccc3nccnc3c2NS(C)(=O)=O)n1 | 6.30 to 7.30
CCN(c1c(Nc2nc(Nc3cc(N4CCC(O)CC4)ccc3OC)ncc2Cl)ccc2nccnc12)S(C)(=O)=O | ≥ 7.30
CCc1cc(Nc2ncc(CC)c(Nc3ccc4nccnc4c3N(C)S(C)(=O)=O)n2)c(OC)cc1N1CCC(N2CCN(C)CC2)CC1 | ≥ 7.30
CCc1cc(Nc2ncc(C(C)C)c(Nc3ccc4nccnc4c3N(C)S(C)(=O)=O)n2)c(OC)cc1N1CCC(N(C)C)C1 (stereo not drawn) | 6.30 to 7.30

Prompt: Entry under review: COc1ccc(N2CCC(O)CC2)cc1Nc1ncc(C2CC2)c(Nc2ccc3nccnc3c2N(C)S(C)(=O)=O)n1 . Reported pIC50?
Completion: ≥ 7.30

Prompt: Entry under review: C=Cc1cc(Nc2nc(Nc3ccc4nccnc4c3N(C)S(C)(=O)=O)c3sccc3n2)c(OC(F)(F)F)cc1N1CCC(N2CCN(C)CC2)CC1 . Reported pIC50?
Completion: 5.60 to 6.30

Prompt: Entry under review: CCc1cc(Nc2ncc(Br)c(Nc3ccc4nccnc4c3NS(C)(=O)=O)n2)c(OC)cc1N1CCC(N(C)C)C1 (stereo not drawn) . Reported pIC50?
Completion: ≥ 7.30

Prompt: Entry under review: CCc1cc(Nc2ncc(Br)c(Nc3ccc4nccnc4c3N(C3CC3)S(C)(=O)=O)n2)c(OC)cc1N1CCN(C)CC1 . Reported pIC50?
Completion: ≥ 7.30

Prompt: Entry under review: COc1cc(N2CCC(N3CCN(C)CC3)CC2)c(C)cc1Nc1ncc(OC)c(Nc2ccc3nccnc3c2N(C)S(C)(=O)=O)n1 . Reported pIC50?
Completion: ≥ 7.30

---

# Experimental System: various mutants of kinase EGFR (BaF3 cell lines stably transfected with kinase) (Homo sapiens, UniProt P00533, T790M/C797S, form not given)
# Construct: other: BaF3 cells stably transfected with EGFR Δ19Del/T790M/C797S; MTS, 48; other: BaF3 cell line stably transfected with EGFR Δ19Del/T790M/C7
# Sequence (P00533 with tags, fused parts or gaps DEL746-750/T790M/C797S, form open): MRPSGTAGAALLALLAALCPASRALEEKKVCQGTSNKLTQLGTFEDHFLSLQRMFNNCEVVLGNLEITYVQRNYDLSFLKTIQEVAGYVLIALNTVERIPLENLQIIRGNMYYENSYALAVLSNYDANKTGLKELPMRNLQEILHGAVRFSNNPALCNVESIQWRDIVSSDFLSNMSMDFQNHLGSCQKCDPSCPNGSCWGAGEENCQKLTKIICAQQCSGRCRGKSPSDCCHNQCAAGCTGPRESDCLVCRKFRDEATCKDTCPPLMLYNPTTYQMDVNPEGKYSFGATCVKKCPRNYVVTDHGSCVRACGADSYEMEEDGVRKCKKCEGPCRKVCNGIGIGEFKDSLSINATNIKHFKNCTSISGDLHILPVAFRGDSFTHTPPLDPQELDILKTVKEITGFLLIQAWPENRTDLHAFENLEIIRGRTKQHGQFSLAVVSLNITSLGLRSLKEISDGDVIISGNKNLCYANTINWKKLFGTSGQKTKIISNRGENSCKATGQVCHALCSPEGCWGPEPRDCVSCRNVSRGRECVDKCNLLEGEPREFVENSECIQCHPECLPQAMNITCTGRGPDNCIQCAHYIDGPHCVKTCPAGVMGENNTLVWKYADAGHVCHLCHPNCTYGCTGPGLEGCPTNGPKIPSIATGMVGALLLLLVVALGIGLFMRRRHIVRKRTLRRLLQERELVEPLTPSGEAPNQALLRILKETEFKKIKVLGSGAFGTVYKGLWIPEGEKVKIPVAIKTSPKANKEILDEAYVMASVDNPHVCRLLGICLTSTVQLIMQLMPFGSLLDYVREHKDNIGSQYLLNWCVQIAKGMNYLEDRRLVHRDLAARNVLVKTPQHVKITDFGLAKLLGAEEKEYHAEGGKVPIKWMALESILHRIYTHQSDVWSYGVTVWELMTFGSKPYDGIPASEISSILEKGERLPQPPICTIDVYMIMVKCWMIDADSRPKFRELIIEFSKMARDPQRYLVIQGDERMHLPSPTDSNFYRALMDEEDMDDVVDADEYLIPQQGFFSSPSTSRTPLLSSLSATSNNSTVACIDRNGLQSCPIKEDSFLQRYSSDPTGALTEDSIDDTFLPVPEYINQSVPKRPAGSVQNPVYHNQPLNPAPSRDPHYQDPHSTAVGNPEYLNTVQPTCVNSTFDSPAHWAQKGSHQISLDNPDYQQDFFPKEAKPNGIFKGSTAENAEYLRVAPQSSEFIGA
# Method: Growth inhibitory activity of compounds on BaF3 cell lines stably transfected with kinase (MTS, 48 h)
# Assay type: cell-based
# Assay Context: BaF3 cells stably transfected with EGFR Δ19Del/T790M/C797S, read-out: IC50, growth inhibition, Δ19Del/T790M/C797S
# Lookup of reported IC50 keyed by entry

CCc1cc(Nc2ncc(C(F)(F)F)c(Nc3ccc4nccnc4c3N(C)S(C)(=O)=O)n2)c(OC)cc1N1CCC(N(C)C)CC1 [Compound I-206] | ≤ 50 nM
COc1cc(N2CCC(N3CCN(C)CC3)CC2)c(CC2CC2)cc1Nc1ncc(Cl)c(Nc2ccc3nccnc3c2N(C)S(=O)(=O)C(C)C)n1 [Compound I-254] | 50 to 500 nM
CCc1cc(Nc2ncc(F)c(Nc3ccc4nccnc4c3N(C)S(=O)(=O)C3CC3)n2)c(OC)cc1N1CCC(N2CCN(C)CC2)CC1 [Compound I-249] | ≤ 50 nM
CCc1cc(Nc2ncc(Cl)c(Nc3ccc4nccnc4c3N(CC)S(C)(=O)=O)n2)c(OC(F)(F)F)cc1N1CCC(N2CCN(C)CC2)CC1 [Compound I-111] | ≤ 50 nM

Prompt: Entry under review: COc1cc(N2CCC(N(C)C)C2)c(C)cc1Nc1ncc([N+](=O)[O-])c(Nc2ccc3nccnc3c2N(C)S(C)(=O)=O)n1 (stereo not drawn) [Compound I-195] . Reported IC50?
Completion: ≤ 50 nM

Prompt: Entry under review: CCN(c1c(Nc2nc(Nc3cc(C)c(N4CCC(N(C)C)CC4)cc3OC)ncc2Br)ccc2nccnc12)S(C)(=O)=O [Compound I-299] . Reported IC50?
Completion: ≤ 50 nM

Prompt: Entry under review: COc1cc(N2CCC(N(C)C)CC2)c(C)cc1Nc1ncc(Cl)c(Nc2ccc3nccnc3c2N(C)S(C)(=O)=O)n1 [Compound I-169] . Reported IC50?
Completion: ≤ 50 nM

---

# Experimental System: various mutants of kinase EGFR (BaF3 cell lines stably transfected with kinase) (Homo sapiens, UniProt P00533, C797S/L858R/T790M)
# Construct: expressed in transfected cells; host or cells: BaF3
# Sequence (P00533 25-1210 T790M/C797S/L858R): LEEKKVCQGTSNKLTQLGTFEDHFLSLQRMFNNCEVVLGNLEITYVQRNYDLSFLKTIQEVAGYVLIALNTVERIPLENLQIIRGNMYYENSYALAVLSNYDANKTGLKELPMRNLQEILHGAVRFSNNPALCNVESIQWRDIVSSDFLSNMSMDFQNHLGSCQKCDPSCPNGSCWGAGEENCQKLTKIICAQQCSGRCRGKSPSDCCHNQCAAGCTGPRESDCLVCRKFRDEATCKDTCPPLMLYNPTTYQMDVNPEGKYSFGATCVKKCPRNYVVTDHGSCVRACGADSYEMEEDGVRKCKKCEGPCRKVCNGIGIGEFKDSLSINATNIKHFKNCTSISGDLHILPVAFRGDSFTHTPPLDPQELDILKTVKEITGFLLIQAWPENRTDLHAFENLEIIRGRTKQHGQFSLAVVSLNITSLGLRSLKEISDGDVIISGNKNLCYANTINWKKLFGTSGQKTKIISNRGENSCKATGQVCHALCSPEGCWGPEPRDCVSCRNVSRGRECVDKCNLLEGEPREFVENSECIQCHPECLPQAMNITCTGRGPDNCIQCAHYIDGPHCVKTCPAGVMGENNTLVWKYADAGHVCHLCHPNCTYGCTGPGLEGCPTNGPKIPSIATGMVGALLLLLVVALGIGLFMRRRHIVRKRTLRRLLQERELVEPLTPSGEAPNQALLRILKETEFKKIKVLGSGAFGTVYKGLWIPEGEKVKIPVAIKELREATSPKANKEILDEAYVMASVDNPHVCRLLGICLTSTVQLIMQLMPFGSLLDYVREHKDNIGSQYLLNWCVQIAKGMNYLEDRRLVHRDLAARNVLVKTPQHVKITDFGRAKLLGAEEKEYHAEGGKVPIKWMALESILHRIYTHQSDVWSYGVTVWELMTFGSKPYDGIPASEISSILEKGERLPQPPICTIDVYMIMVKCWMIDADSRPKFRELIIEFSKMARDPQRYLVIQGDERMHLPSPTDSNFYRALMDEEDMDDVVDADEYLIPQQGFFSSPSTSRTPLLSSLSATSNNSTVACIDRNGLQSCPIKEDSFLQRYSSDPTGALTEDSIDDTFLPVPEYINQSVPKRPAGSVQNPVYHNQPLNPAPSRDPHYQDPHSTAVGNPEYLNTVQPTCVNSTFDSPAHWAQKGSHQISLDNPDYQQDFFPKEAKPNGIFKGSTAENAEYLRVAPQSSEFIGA
# Method: Growth inhibitory activity of compounds on BaF3 cell lines stably transfected with kinase (MTS, 48 h)
# Format: cell-based
# Assay Context: BaF3 cells stably transfected with EGFR L858R/T790M/C797S, read-out: IC50, growth inhibition, L858R/T790M/C797S
Measure Name: IC50

Worked cases, IC50 given:
CCc1cc(Nc2ncc(Cl)c(Nc3ccc4nccnc4c3N(C)S(=O)(=O)C(F)(F)F)n2)c(OC)cc1N1CCC(N2CCN(C)CC2)CC1 [Compound I-130] | 50 to 500 nM
C=Cc1cc(Nc2ncc(Cl)c(Nc3ccc4nccnc4c3N(C)S(=O)(=O)CC)n2)c(OC(F)(F)F)cc1N1CCC(N2CCN(C)CC2)CC1 [Compound I-295] | 50 to 500 nM

Would you kindly look at the next entry?
Prompt: Entry under review: CCN(c1c(Nc2nc(Nc3cc(C)c(N4CCC(N(C)C)C4)cc3OC)ncc2Cl)ccc2nccnc12)S(C)(=O)=O (stereo not drawn) [Compound I-233] . Reported IC50?
Completion: ≤ 50 nM

---

# Experimental System: various mutants of kinase EGFR (BaF3 cell lines stably transfected with kinase) (Homo sapiens, UniProt P00533, C797S/L858R/T790M)
# Construct: expressed in transfected cells; host or cells: BaF3
# Method: Growth inhibitory activity of compounds on BaF3 cell lines stably transfected with kinase (MTS, 48 h)
# Type: cell-based
# Assay Context: BaF3 cell line stably transfected with EGFR L858R/T790M/C797S, read-out: L858R/T790M/ C797S growth inhibitory activity IC50
# Method: The activity of compounds against various mutants of kinase EGFR was evaluated by their effect of inhibiting growth of BaF3 cell lines stably transfected with kinase. The specific test method was given as follows: […] 3) Compound test: cells were incubated into a 96-well culture plate, the volume of cytosol was 90 µL, and then 10 µL of the compound at each gradient concentration was added. […] OD values at 490 nm were measured by a microplate reader (VARIOSKAN FLASH, Thermo). […]
pIC50: −log10 of the molar value.
# Lookup of reported pIC50 keyed by entry

Worked cases, pIC50 given:
CCc1cc(Nc2nc(Nc3ccc4nccnc4c3N(C)S(C)(=O)=O)c3occc3n2)c(OC)nc1N1CCC(N2CCN(C)CC2)CC1 | 6.30 to 7.30
COc1cc(N2CCN(C)CC2)c(C)cc1Nc1ncc(Br)c(Nc2ccc3nccnc3c2N(C2CC2)S(C)(=O)=O)n1 | ≥ 7.30
CCc1cnc(Nc2ccc(N3CCC(N4CCN(C)CC4)CC3)cc2OC)nc1Nc1ccc2nccnc2c1N(C)S(C)(=O)=O | 6.30 to 7.30
CCc1cc(Nc2nc(Nc3ccc4nccnc4c3N(C)S(C)(=O)=O)c3sccc3n2)c(OC(F)(F)F)cc1N1CCC(N2CCN(C)CC2)CC1 | 6.30 to 7.30
CCc1cc(Nc2nc(Nc3ccc4nccnc4c3N(C)S(C)(=O)=O)c3sccc3n2)c(OC)cc1N1CCN(C)CC1 | 6.30 to 7.30

Prompt: Entry under review: COc1cc(N2CCC(N3CCN(C)CC3)CC2)c(C)cc1Nc1nc(Nc2ccc3nccnc3c2N(C)S(C)(=O)=O)c2sccc2n1 . Reported pIC50?
Completion: 6.30 to 7.30

Prompt: Entry under review: COc1cc(N2CCC(N3CCN(C)CC3)CC2)c(C)cc1Nc1nc(Nc2ccc3nccnc3c2N(C)S(C)(=O)=O)c2cc[nH]c2n1 . Reported pIC50?
Completion: ≥ 7.30

Prompt: Entry under review: CCc1cc(Nc2ncc(Br)c(Nc3ccc4nccnc4c3N(C)S(C)(=O)=O)n2)c(OC)cc1N(C)CCN(C)C . Reported pIC50?
Completion: ≥ 7.30

Prompt: Entry under review: CCc1cc(Nc2nc(Nc3ccc4nccnc4c3N(C)S(C)(=O)=O)c3[nH]ccc3n2)c(OC)cc1N1CCN(C)CC1 . Reported pIC50?
Completion: 5.60 to 6.30

Prompt: Entry under review: CCc1cc(Nc2ncc(C(C)C)c(Nc3ccc4nccnc4c3N(C)S(C)(=O)=O)n2)c(OC)cc1N1CCC(N(C)C)CC1 . Reported pIC50?
Completion: ≥ 7.30

Prompt: Entry under review: COc1ccc(N2CCC(N3CCCC3)CC2)cc1Nc1ncc(Br)c(Nc2ccc3nccnc3c2N(C)S(C)(=O)=O)n1 . Reported pIC50?
Completion: ≥ 7.30

Prompt: Entry under review: CCc1cc(Nc2ncc(Br)c(Nc3ccc4nccnc4c3NS(C)(=O)=O)n2)c(OC)cc1C(=O)N1CCC(N2CCN(C)CC2)CC1 . Reported pIC50?
Completion: 5.60 to 6.30

Prompt: Entry under review: COc1cc(N2CCC(N3CCN(C)CC3)CC2)c(Cc2ccccc2)cc1Nc1nc(Nc2ccc3nccnc3c2N(C)S(C)(=O)=O)c2occc2n1 . Reported pIC50?
Completion: 5.60 to 6.30

Where do the numbers come from? From patent US20230310428A1.
